# MEASUREMENT SETUP: 308.15 K; 101 kPa; Liquid
Known viscosity of a selection of compounds
Response body: numeric value in mPa·s, unit text excluded.

[
  {
    "COMPOUND": "CCCCn1cc[n+](C)c1.F[B-](F)(F)F [1-butyl-3-methylimidazolium tetrafluoroborate]",
    "viscosity, mPa·s": 61.3
  }
]

Prompt: Write down viscosity measured for item CCCCCCn1cc[n+](C)c1.F[B-](F)(F)F [1-hexyl-3-methylimidazolium tetrafluoroborate]
Completion: 110.3

Prompt: Query viscosity for CCn1cc[n+](C)c1.F[B-](F)(F)F [1-ethyl-3-methylimidazolium tetrafluoroborate]
Completion: 26

Prompt: Annotate the compound O [water] with its measured viscosity.
Completion: 0.719

Where do these numbers come from? They come from the NIST ThermoML archive (doi:10.1021/je900600c).
